The measured values listed here are drawn from paper PMC4032265.

Biological target: α2C adrenergic receptor (Homo sapiens)
Sequence (P18825 whole entry): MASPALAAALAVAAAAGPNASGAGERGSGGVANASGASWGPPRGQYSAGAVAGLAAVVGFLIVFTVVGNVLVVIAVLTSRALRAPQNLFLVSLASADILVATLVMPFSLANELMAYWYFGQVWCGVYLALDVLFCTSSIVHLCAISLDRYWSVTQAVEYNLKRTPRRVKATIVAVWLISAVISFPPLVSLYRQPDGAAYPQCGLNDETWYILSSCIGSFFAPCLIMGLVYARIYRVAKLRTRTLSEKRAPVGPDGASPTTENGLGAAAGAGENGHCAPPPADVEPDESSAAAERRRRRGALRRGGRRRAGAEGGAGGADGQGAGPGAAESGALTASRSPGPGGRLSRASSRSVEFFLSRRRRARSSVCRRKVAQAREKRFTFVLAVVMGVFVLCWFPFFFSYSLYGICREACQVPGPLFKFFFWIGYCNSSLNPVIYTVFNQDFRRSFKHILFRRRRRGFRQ
Assay: α2C adrenergic receptor functional assay (antagonist)
Parameter: IC50 (nM)

- Clc1cccc(CNc2nc(Cl)nc3[nH]cnc23)c1: 2900

* * *

Target: D4 dopaminergic receptor (Homo sapiens)
Sequence (P21917 whole entry): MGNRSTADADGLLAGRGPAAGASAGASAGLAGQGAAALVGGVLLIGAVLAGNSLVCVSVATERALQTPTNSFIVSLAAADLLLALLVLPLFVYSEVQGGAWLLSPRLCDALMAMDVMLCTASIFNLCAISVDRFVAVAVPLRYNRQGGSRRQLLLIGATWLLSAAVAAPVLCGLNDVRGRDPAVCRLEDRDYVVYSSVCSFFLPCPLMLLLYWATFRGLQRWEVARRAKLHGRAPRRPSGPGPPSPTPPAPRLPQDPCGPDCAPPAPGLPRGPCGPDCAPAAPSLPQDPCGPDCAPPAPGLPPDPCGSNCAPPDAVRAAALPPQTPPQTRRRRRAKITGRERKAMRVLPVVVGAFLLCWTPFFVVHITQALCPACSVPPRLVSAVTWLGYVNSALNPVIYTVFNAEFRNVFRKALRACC
Experiment: PDSP radioligand binding, D4
Conditions: read-out: % inhibition at 10 µM; single concentration 10 µM
Below: a set of entries, each annotated with reported inhibition at 10 µM.
Parameter: inhibition at 10 µM (%)

* O[C@@H]1[C@H](O)[C@@H]2C[C@@H]2[C@H]1n1cnc2c(NCc3cccc(Cl)c3)nc(C#Cc3ccc(F)c(F)c3)nc21 | 0
* CNC(=O)[C@@]12C[C@@H]1[C@@H](n1cnc3c(NC)nc(C#Cc4ccc(F)c(F)c4)nc31)[C@H](O)[C@@H]2O | 4
* CNC(=O)[C@@]12C[C@@H]1[C@@H](n1cnc3c(NCc4cccc(Cl)c4)nc(C#Cc4ccc(F)cc4)nc31)[C@H](O)[C@@H]2O | 0
* CNC(=O)[C@@]12C[C@@H]1[C@@H](n1cnc3c(NCc4cccc(Cl)c4)nc(Cl)nc31)[C@H](O)[C@@H]2O | 6
* O[C@@H]1[C@H](O)[C@@H]2C[C@@H]2[C@H]1n1cnc2c(NCc3cccc(Cl)c3)ncnc21 | 0
* CNC(=O)[C@@]12C[C@@H]1[C@@H](n1cnc3c(NCc4cccc(Cl)c4)nc(C#Cc4ccccc4Cl)nc31)[C@H](O)[C@@H]2O | 1
* Clc1cccc(CNc2nc(Cl)nc3[nH]cnc23)c1 | 0
* Fc1ccc(C#Cc2nc(NCc3cccc(Cl)c3)c3nc[nH]c3n2)cc1F | 0
* O[C@@H]1[C@H](O)[C@@H]2C[C@@H]2[C@H]1n1cnc2c(NC(C3CC3)C3CC3)nc(Cl)nc21 | 0

* * *

Molecular target: UniProtKB P13945
Sequence (P13945 whole entry): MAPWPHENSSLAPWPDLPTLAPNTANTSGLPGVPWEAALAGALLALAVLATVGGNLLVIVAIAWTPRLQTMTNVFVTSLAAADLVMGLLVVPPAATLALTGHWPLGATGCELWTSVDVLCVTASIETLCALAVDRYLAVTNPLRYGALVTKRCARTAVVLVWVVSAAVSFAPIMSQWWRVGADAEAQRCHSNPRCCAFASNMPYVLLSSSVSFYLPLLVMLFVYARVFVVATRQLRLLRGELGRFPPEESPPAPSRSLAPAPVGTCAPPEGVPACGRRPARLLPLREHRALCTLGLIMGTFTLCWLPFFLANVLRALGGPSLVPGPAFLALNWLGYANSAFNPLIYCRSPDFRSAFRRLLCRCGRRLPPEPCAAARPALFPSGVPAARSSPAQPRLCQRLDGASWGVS
Experiment: PDSP radioligand binding, β3
Conditions: read-out: % inhibition at 10 µM; single concentration 10 µM
Please enter MET where inhibition at 10 µM is greater than or equal to 5%, and NOT MET where it is lower.

- O[C@@H]1[C@H](O)[C@@H]2C[C@@H]2[C@H]1n1cnc2c(NC(C3CC3)C3CC3)nc(Cl)nc21 [Compound 10]: NOT MET
- Clc1cccc(CNc2nc(Cl)nc3[nH]cnc23)c1 [Compound 9]: NOT MET
- O[C@@H]1[C@H](O)[C@@H]2C[C@@H]2[C@H]1n1cnc2c(NCc3cccc(Cl)c3)nc(C#Cc3ccc(F)c(F)c3)nc21 [Compound 6]: MET
- O[C@@H]1[C@H](O)[C@@H]2C[C@@H]2[C@H]1n1cnc2c(NCc3cccc(Cl)c3)ncnc21 [Compound 7]: NOT MET
- CNC(=O)[C@@]12C[C@@H]1[C@@H](n1cnc3c(NC)nc(C#Cc4ccc(F)c(F)c4)nc31)[C@H](O)[C@@H]2O [Compound 5]: MET
- CNC(=O)[C@@]12C[C@@H]1[C@@H](n1cnc3c(NCc4cccc(Cl)c4)nc(C#Cc4ccc(F)cc4)nc31)[C@H](O)[C@@H]2O [Compound 2]: MET
- CNC(=O)[C@@]12C[C@@H]1[C@@H](n1cnc3c(NCc4cccc(Cl)c4)nc(Cl)nc31)[C@H](O)[C@@H]2O [Compound 4]: NOT MET
- CNC(=O)[C@@]12C[C@@H]1[C@@H](n1cnc3c(NCc4cccc(Cl)c4)nc(C#Cc4ccccc4Cl)nc31)[C@H](O)[C@@H]2O [Compound 3]: MET
